Biological target: human trypsin (Homo sapiens)
measure: pKi
Just so you know, pKi here is -log10 of the concentration in molar units; reply with that number alone.

compound="N=C(N)c1ccc(OC(=O)c2ccc(CN3CCC[C@@H]3C(=O)N(CCC(=O)O)CC(=O)O)s2)c(F)c1 [B-60, bis(trifluoroacetate)]" measure=pKi endpoint_result=9.38

Query N=C(N)c1ccc(OC(=O)c2ccc(CNC3(C(=O)N[C@@H](CC(=O)O)C(=O)O)CC3)s2)c(F)c1 [B-37, bis(trifluoroacetate)] yields pKi of 8.80

// pKi lookup, compound = C=CCN(C(=O)CN1CCc2cc(C(=O)Oc3ccc(C(=N)N)cc3F)sc2C1)[C@@H](CCC(=O)O)C(=O)O [B-45, bis(trifluoroacetate)] , result: 9.15
